Where do the numbers come from? From patent US20250163164A1.

SYSTEM UNDER TEST: T1, human interleukin 13 receptor subunit alpha 2 (IL-13RA2) (human, UniProt Q14627 27-380)
T1 construct: whole, on cells; also called IL-13Rα2; CD213A2
T1 sequence (looked up): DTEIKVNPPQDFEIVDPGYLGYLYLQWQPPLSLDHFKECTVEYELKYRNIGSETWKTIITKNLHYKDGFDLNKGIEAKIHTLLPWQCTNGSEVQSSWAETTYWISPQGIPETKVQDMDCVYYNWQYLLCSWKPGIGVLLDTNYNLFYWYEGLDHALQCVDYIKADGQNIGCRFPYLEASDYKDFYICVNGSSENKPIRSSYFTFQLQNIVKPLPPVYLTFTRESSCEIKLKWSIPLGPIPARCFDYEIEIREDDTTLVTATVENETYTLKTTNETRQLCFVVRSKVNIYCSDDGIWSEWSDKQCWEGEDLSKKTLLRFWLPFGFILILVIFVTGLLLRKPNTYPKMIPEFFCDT
TEST DESCRIPTION: FACS on A375 cells

{"columns": ["BINDER", "Top (MFI)"],
 "data": [
  ["72B4H4 H2L1 hIgG1 (antibody, V domains shown, humanized, hIgG1) VH: QVQLVQSGAEVVKPGASVKVSCKASGYTFTNYWMNWVRQAPGQGLEWIGRIDAYAGETHYNQKFKDRVTMTVDTSTSTVYMELSSLRSEDTAVYYCARGYGDAYGMDHWGQGTLVTVSS VL: DIQMTQSPSSLSASVGDRVTITCRASESVDNYGISFMNWYQQKPGKAPKLLIYAASRQGSGVPSRFSGSGSGTDFTLTISSLQPEDFATYYCQQSKEVPWTFGQGTKVEIK", "8360 MFI"],
  ["72B4H4 H1L1 hIgG1 (antibody, V domains shown, humanized, hIgG1) VH: QVQLVQSGAEVKKPGASVKVSCKASGYTFTNYWMNWVRQAPGQGLEWMGRIDAYAGETHYNQKFKDRVTMTRDTSTSTVYMELSSLRSEDTAVYYCARGYGDAYGMDHWGQGTLVTVSS VL: DIQMTQSPSSLSASVGDRVTITCRASESVDNYGISFMNWYQQKPGKAPKLLIYAASRQGSGVPSRFSGSGSGTDFTLTISSLQPEDFATYYCQQSKEVPWTFGQGTKVEIK", "8440 MFI"]
]}
